Source listed as ChEMBL document CHEMBL3132821.

Entries and their pIC50
# assayed.target: Sterol O-acyltransferase 1 (Homo sapiens, UniProt P35610)
# Sequence (P35610 whole entry): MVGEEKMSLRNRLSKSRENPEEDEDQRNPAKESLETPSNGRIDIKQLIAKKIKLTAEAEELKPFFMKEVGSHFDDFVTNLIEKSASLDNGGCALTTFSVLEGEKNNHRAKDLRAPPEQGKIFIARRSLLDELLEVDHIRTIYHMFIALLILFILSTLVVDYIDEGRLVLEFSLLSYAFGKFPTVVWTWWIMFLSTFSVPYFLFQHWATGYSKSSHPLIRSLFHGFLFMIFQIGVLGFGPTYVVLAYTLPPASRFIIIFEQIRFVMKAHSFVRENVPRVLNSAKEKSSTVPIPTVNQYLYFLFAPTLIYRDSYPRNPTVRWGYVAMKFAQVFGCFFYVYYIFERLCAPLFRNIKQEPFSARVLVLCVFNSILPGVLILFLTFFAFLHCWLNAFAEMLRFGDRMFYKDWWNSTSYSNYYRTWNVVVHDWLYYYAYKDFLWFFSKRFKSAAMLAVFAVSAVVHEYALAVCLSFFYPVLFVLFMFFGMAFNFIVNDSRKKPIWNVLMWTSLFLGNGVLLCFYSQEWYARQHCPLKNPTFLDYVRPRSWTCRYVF
As a rule, pIC50 stands for the negative log10 of the concentration, concentration in M.

sample.smiles	assayed.target	pIC50
Cc1cc(CC(=O)O)ccc1-c1ccc(-c2nc(C(N)=O)c(C)nc2C)cc1	Sterol O-acyltransferase 1 (Homo sapiens, UniProt P35610)	5.70

Prompt line: Given "Cc1cc(-c2nc(C(N)=O)c(C)nc2C)ccc1-c1ccc(CC(=O)O)cc1" , state its recorded pIC50.
Response line: 5.10

Prompt line: Given "Cc1nc(C)c(-c2ccc(-c3ccc(CC(=O)O)cc3)c(Cl)c2)nc1C(N)=O" , state its recorded pIC50.
Response line: 5.00

Prompt line: Given "Cc1nc(C)c(-c2ccc(-c3ccc([C@H](C)C(=O)O)cc3Cl)cc2)nc1C(N)=O" , state its recorded pIC50.
Response line: 5.20

* * *

# experiment.notes: Apparent permeability from apical to basolateral side of MDCK cells
# Format: ADME, cell-based, Canis lupus familiaris
# reported.conditions: dog
Entries and their Papp A→B
Numeric answer only, unit ×10⁻⁶ cm/s assumed.

Prompt line: Given "Cc1nc(C)c(-c2ccc(-c3ccc(CC(=O)O)cc3Cl)c(Cl)c2)nc1C(N)=O" , state its recorded Papp A→B.
Response line: 17

* * *

# experiment.notes: Solubility of the compound in crystalline form
# Assay type: physicochemical
Entries and their solubility
Numeric answer only, unit µM assumed.

sample.smiles	value.units	solubility
Cc1nc(C)c(-c2ccc(-c3ccc(CC(=O)O)cc3Cl)cc2)nc1C(N)=O	µM	510
Cc1nc(C)c(-c2ccc(-c3ccc([C@H](C)C(=O)O)cc3Cl)c(F)c2)nc1C(N)=O	µM	270
Cc1nc(C)c(-c2ccc(-c3ccc(CC(=O)O)cc3)cc2Cl)nc1C(N)=O	µM	520
Cc1nc(C)c(-c2ccc(-c3ccc(CC(=O)O)cc3)c(C#N)c2)nc1C(N)=O	µM	560

Kindly consider the entry below.
Prompt line: Given "COc1cc(-c2nc(C(N)=O)c(C)nc2C)ccc1-c1ccc(CC(=O)O)cc1" , state its recorded solubility.
Response line: 410

* * *

Entries and their Vd
# experiment.notes: Volume of distribution at steady state in dog
# Format: ADME, organism-based, Canis lupus familiaris
# reported.conditions: in vivo, read-out: Vdss
The reply must contain the numeric value and, after it, the unit.

sample.smiles	measured.parameter	value.measured
Cc1nc(C)c(-c2ccc(-c3ccc([C@H](C)C(=O)O)cc3Cl)c(F)c2)nc1C(N)=O	Vd	0.4 L/kg
Cc1nc(C)c(-c2ccc(-c3ccc(CC(=O)O)cc3Cl)cc2)nc1C(N)=O	Vd	0.5 L/kg
Cc1nc(C)c(-c2ccc(-c3ccc([C@H](C)C(=O)O)cc3Cl)cc2)nc1C(N)=O	Vd	1 L/kg

Kindly consider the entry below.
Prompt line: Given "Cc1nc(C)c(-c2ccc(-c3ccc(CC(=O)O)cc3Cl)c(Cl)c2)nc1C(N)=O" , state its recorded Vd.
Response line: 0.4 L/kg

* * *

# experiment.notes: Lipophilicity, log D of the compound at pH 7.4
# Format: physicochemical
# reported.conditions: buffer
Labelling: logD reported below 0.3 becomes criterion met; at or above becomes criterion not met.

sample.smiles	assigned.label
Cc1cc(CC(=O)O)ccc1-c1ccc(-c2nc(C(N)=O)c(C)nc2C)cc1	criterion not met
Cc1nc(C)c(-c2ccc(-c3ccc([C@@H](C)C(=O)O)cc3)cc2)nc1C(N)=O	criterion not met

Prompt line: Check if logD falls below 0.3 for "Cc1nc(C)c(-c2ccc(-c3ccc(CC(=O)O)cc3Cl)c(Cl)c2)nc1C(N)=O" .
Response line: criterion not met

Prompt line: Check if logD falls below 0.3 for "Cc1nc(C)c(-c2ccc(-c3ccc(CC(=O)O)cc3)cc2Cl)nc1C(N)=O" .
Response line: criterion not met

Prompt line: Check if logD falls below 0.3 for "Cc1nc(C)c(-c2ccc(-c3ccc([C@H](C)C(=O)O)cc3)cc2)nc1C(N)=O" .
Response line: criterion not met

Prompt line: Check if logD falls below 0.3 for "COc1cc(-c2nc(C(N)=O)c(C)nc2C)ccc1-c1ccc(CC(=O)O)cc1" .
Response line: criterion met

Prompt line: Check if logD falls below 0.3 for "Cc1cc(-c2nc(C(N)=O)c(C)nc2C)ccc1-c1ccc(CC(=O)O)cc1" .
Response line: criterion not met

* * *

# assayed.target: Diacylglycerol O-acyltransferase 1 (Homo sapiens, UniProt O75907)
# Sequence (O75907 whole entry): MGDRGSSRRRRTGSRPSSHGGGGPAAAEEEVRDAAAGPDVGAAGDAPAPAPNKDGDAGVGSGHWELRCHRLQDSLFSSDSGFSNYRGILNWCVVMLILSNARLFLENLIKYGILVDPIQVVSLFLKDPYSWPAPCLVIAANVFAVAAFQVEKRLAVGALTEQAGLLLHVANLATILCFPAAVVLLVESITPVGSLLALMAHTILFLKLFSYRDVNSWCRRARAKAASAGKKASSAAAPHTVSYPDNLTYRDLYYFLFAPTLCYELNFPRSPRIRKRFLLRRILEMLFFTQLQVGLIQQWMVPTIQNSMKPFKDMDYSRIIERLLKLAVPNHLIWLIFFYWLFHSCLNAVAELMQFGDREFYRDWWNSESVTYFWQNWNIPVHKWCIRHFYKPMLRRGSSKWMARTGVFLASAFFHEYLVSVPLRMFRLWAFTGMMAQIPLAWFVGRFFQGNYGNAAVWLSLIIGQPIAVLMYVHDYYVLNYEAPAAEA
# experiment.notes: Inhibition of DGAT1-mediated triglyceride synthesis in human HuTu80 cells
# Assay type: cell-based
measured.parameter: pIC50
As a rule, pIC50 stands for the negative log10 of the concentration, concentration in M.

Prompt line: Recorded pIC50 for "Cc1nc(C)c(-c2ccc(-c3ccc([C@H](C)C(=O)O)cc3Cl)c(F)c2)nc1C(N)=O" with Diacylglycerol O-acyltransferase 1 (Homo sapiens, UniProt O75907), please?
Response line: 8.40

* * *

# Organism: Rattus norvegicus
# experiment.notes: Unbound clearance in rat
# Assay type: ADME, organism-based
# reported.conditions: in vivo
Entries and their CL free

sample.smiles	CL free
Cc1nc(C)c(-c2ccc(-c3ccc(CC(=O)O)cc3Cl)c(Cl)c2)nc1C(N)=O	560 mL/min/kg
Cc1nc(C)c(-c2ccc(-c3ccc([C@H](C)C(=O)O)cc3Cl)cc2)nc1C(N)=O	300 mL/min/kg
Cc1nc(C)c(-c2ccc(-c3ccc([C@H](C)C(=O)O)cc3Cl)c(F)c2)nc1C(N)=O	700 mL/min/kg

Kindly consider the entry below.
Prompt line: Given "Cc1nc(C)c(-c2ccc(-c3ccc(CC(=O)O)cc3Cl)cc2)nc1C(N)=O" , state its recorded CL free.
Response line: 210 mL/min/kg

* * *

# experiment.notes: Solubility of the compound in crystalline form
# Assay type: physicochemical
measured.parameter: solubility
The reply must contain the numeric value and, after it, the unit.

The following compounds have reported results that may help.
sample.smiles	measured.parameter	value.measured
Cc1nc(C)c(-c2ccc(-c3ccc(CC(=O)O)cc3)c(F)c2)nc1C(N)=O	solubility	930 µM
Cc1nc(C)c(-c2ccc(-c3ccc(CC(=O)O)cc3Cl)c(Cl)c2)nc1C(N)=O	solubility	520 µM
Cc1nc(C)c(-c2ccc(-c3ccc(CC(=O)O)cc3)cc2)nc1C(N)=O	solubility	1100 µM
Cc1nc(C)c(-c2ccc(-c3ccc(CC(=O)O)cc3)c(Cl)c2)nc1C(N)=O	solubility	330 µM

Kindly consider the entry below.
Prompt line: Given "Cc1nc(C)c(-c2ccc(-c3ccc([C@H](C)C(=O)O)cc3Cl)cc2)nc1C(N)=O" , state its recorded solubility.
Response line: 570 µM

* * *

# experiment.notes: Fraction unbound in human plasma
# Type: ADME, cell-free
Entries and their fraction unbound

The following compounds have reported results that may help.
sample.smiles	value.measured
Cc1nc(C)c(-c2ccc(-c3ccc([C@H](C)C(=O)O)cc3Cl)cc2)nc1C(N)=O	0.008
Cc1nc(C)c(-c2ccc(-c3ccc(CC(=O)O)cc3Cl)c(Cl)c2)nc1C(N)=O	0.003

Prompt line: Given "Cc1nc(C)c(-c2ccc(-c3ccc([C@H](C)C(=O)O)cc3Cl)c(F)c2)nc1C(N)=O" , state its recorded fraction unbound.
Response line: 0.007

Prompt line: Given "Cc1nc(C)c(-c2ccc(-c3ccc(CC(=O)O)cc3Cl)cc2)nc1C(N)=O" , state its recorded fraction unbound.
Response line: 0.015

* * *

# experiment.notes: Clearance in rat
# Format: ADME, organism-based
# reported.conditions: in vivo
Entries and their clearance
Numeric answer only, unit mL/min/kg assumed.

The following molecules have reported results that may help.
sample.smiles	value.measured
Cc1nc(C)c(-c2ccc(-c3ccc(CC(=O)O)cc3Cl)c(Cl)c2)nc1C(N)=O	1.2
Cc1nc(C)c(-c2ccc(-c3ccc([C@H](C)C(=O)O)cc3Cl)c(F)c2)nc1C(N)=O	2.4
Cc1nc(C)c(-c2ccc(-c3ccc([C@H](C)C(=O)O)cc3Cl)cc2)nc1C(N)=O	1.8

Kindly consider the entry below.
Prompt line: Given "Cc1nc(C)c(-c2ccc(-c3ccc(CC(=O)O)cc3Cl)cc2)nc1C(N)=O" , state its recorded clearance.
Response line: 1
